Assay Explanation: Microscale solubility by optical density (plate reader)
Condition Description: 37 °C, aqueous buffer, kinetic from dmso stock
Catalogue of solubility at 1 day values
Property Name: solubility at 1 day

molecule="C=C[C@]1(C)C[C@@H](OC(=O)CSCCN=[N+]=[N-])[C@]2(C)[C@H](C)CC[C@]3(CCC(=O)[C@H]32)[C@@H](C)[C@@H]1O [compound 28]" meas_value="25 to 50 µM"
molecule="C=C[C@]1(C)C[C@@H](OC(=O)CSCCOCCOCCO)[C@]2(C)[C@H](C)CC[C@]3(CCC(=O)[C@H]32)[C@@H](C)[C@@H]1O [compound 44]" meas_value="> 200 µM"
molecule="C=C[C@]1(C)C[C@@H](OC(=O)CSCCOCCOCCN=[N+]=[N-])[C@]2(C)[C@H](C)CC[C@]3(CCC(=O)[C@H]32)[C@@H](C)[C@@H]1O [compound 30]" meas_value="50 to 100 µM"
molecule="C=C[C@]1(C)C[C@@H](OC(=O)CSCCOCCOCCOCCOCCO)[C@]2(C)[C@H](C)CC[C@]3(CCC(=O)[C@H]32)[C@@H](C)[C@@H]1O [compound 46]" meas_value="> 200 µM"
molecule="C=C[C@]1(C)C[C@@H](OC(=O)CSCCOCCN=[N+]=[N-])[C@]2(C)[C@H](C)CC[C@]3(CCC(=O)[C@H]32)[C@@H](C)[C@@H]1O [compound 29]" meas_value="25 to 50 µM"
molecule="C=C[C@]1(C)C[C@@H](OC(=O)CSCCOCCO)[C@]2(C)[C@H](C)CC[C@]3(CCC(=O)[C@H]32)[C@@H](C)[C@@H]1O [compound 43]" meas_value="> 200 µM"
molecule="C=C[C@]1(C)C[C@@H](OC(=O)CSCCO)[C@]2(C)[C@H](C)CC[C@]3(CCC(=O)[C@H]32)[C@@H](C)[C@@H]1O [compound 25]" meas_value="> 200 µM"
molecule="C=C[C@]1(C)C[C@@H](OC(=O)CSCCOCCOCCOCCOCCOCCOCCOCCO)[C@]2(C)[C@H](C)CC[C@]3(CCC(=O)[C@H]32)[C@@H](C)[C@@H]1O [compound 48]" meas_value="> 200 µM"
molecule="C=C[C@]1(C)C[C@@H](OC(=O)CSCCOCCOCCOCCN=[N+]=[N-])[C@]2(C)[C@H](C)CC[C@]3(CCC(=O)[C@H]32)[C@@H](C)[C@@H]1O [compound 31]" meas_value="100 to 200 µM"
molecule="C=C[C@]1(C)C[C@@H](OC(=O)CSCCOCCOCCOCCO)[C@]2(C)[C@H](C)CC[C@]3(CCC(=O)[C@H]32)[C@@H](C)[C@@H]1O [compound 45]" meas_value="> 200 µM"
molecule="C=C[C@]1(C)C[C@@H](OC(=O)CSCCOCCOCCOCCOCCOCCO)[C@]2(C)[C@H](C)CC[C@]3(CCC(=O)[C@H]32)[C@@H](C)[C@@H]1O [compound 47]" meas_value="> 200 µM"
molecule="C=C[C@]1(C)C[C@@H](OC(=O)CO)[C@]2(C)[C@H](C)CC[C@]3(CCC(=O)[C@H]32)[C@@H](C)[C@@H]1O [compound 1, Pleuromutilin]" meas_value="50 to 100 µM"
molecule="C=C[C@]1(C)C[C@@H](OC(=O)CSCCOCCOCCOCCOCCN=[N+]=[N-])[C@]2(C)[C@H](C)CC[C@]3(CCC(=O)[C@H]32)[C@@H](C)[C@@H]1O [compound 32]" meas_value="100 to 200 µM"
